biological target: Breakpoint cluster region protein (Homo sapiens, UniProt P11274); also: in the data inactive means no Kd found up to 30 µM
Sequence (P11274 whole entry): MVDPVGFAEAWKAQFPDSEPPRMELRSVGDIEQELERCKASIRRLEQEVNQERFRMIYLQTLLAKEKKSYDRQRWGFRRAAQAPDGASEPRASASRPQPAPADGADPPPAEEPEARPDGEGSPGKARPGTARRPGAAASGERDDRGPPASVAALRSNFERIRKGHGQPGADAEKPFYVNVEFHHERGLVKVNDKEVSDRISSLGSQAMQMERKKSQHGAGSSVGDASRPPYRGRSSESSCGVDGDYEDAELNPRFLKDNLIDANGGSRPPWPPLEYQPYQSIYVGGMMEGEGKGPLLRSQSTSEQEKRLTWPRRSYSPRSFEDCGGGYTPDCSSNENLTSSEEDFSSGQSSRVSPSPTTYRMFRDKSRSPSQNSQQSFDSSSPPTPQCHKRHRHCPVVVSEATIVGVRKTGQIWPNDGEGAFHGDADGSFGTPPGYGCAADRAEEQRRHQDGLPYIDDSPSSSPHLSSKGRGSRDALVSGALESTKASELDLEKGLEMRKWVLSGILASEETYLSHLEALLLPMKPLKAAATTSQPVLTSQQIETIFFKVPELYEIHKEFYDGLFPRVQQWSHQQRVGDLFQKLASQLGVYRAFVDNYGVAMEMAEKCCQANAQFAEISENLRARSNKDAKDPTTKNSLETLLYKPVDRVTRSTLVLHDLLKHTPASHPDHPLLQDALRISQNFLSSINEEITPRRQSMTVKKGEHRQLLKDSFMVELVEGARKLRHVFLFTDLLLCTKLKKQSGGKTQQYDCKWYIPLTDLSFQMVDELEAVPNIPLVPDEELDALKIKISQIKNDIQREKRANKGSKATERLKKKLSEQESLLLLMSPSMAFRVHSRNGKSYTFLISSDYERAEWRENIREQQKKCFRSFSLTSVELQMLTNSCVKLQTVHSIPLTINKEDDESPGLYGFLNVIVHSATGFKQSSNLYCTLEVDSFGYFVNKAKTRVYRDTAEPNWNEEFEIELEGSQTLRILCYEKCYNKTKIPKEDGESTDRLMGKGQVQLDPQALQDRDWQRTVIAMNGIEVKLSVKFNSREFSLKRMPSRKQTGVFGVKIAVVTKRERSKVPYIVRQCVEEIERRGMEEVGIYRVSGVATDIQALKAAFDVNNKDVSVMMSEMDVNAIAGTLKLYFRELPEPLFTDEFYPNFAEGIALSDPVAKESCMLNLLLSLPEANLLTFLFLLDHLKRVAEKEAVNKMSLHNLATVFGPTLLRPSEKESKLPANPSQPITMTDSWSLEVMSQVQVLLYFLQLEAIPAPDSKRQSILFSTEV
Active and inactive are the calls of the source.
Possible outcomes: 1 (active), 0 (inactive)

>>> cat("CN1CCN(c2ccc3nc(-c4c(N)c5c(F)cccc5[nH]c4=O)[nH]c3c2)CC1")
1
>>> cat("Cc1c(F)cc(C(=O)NC2CC2)cc1-c1ccc(C(=O)NCC(C)(C)C)cn1")
0
>>> cat("CCCS(=O)(=O)Nc1ccc(F)c(C(=O)c2c[nH]c3ncc(-c4ccc(Cl)cc4)cc23)c1F")
0
>>> cat("COCCNCc1ccc(-c2cc3nccc(Oc4ccc(NC(=S)NC(=O)Cc5ccc(F)cc5)cc4F)c3s2)nc1")
1
>>> cat("C[C@@H](c1ccc2nccn2c1)n1nnc2ncc(-c3cnn(C)c3)nc21")
0
>>> cat("C1=C/COCc2cc(ccc2OCCN2CCCC2)Nc2nccc(n2)-c2cccc(c2)COC/1")
0
>>> cat("CN1CCC(COc2cnc(-c3cccc(Cn4nc(-c5cccc(C#N)c5)ccc4=O)c3)nc2)CC1")
0
>>> cat("CCc1cnn2c(NCc3ccc[n+]([O-])c3)cc(N3CCCC[C@H]3CCO)nc12")
0

* * *

molecular target: Receptor-interacting serine/threonine-protein kinase 3 (Homo sapiens); also: in the data inactive means no Kd found up to 30 µM
Sequence (Q9Y572 whole entry): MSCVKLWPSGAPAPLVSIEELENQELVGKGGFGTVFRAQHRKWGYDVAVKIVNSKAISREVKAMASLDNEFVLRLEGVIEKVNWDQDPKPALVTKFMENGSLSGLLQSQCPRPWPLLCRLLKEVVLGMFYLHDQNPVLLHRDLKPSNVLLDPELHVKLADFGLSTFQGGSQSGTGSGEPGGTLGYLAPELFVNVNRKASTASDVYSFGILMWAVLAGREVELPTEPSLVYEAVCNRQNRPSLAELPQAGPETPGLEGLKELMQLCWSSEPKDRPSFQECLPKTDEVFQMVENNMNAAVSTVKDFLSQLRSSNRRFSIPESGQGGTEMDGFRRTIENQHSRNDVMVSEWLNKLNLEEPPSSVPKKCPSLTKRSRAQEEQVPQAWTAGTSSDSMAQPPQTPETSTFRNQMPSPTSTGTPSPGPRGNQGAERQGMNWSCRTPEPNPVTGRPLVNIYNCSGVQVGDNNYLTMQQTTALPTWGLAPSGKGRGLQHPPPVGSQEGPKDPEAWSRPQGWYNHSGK
Calls of active or inactive are those of the source.
# maps each entry to its Kd
EXPERIMENTAL_ENDPOINT: Kd

>>> recorded_measurement("N[C@@H]1CCCN(c2c(/C=C3\\SC(=O)NC3=O)cccc2-c2ccccc2)C1")
"> 30 µM (inactive)"
>>> recorded_measurement("O=C(c1ccc(F)c(F)c1Nc1ccc(I)cc1F)N1CC(O)([C@@H]2CCCCN2)C1")
"> 30 µM (inactive)"
>>> recorded_measurement("CNC(=O)CN1CCC(Oc2cc3c(Nc4cccc(Cl)c4F)ncnc3cc2OC)CC1")
"1.17 µM (active)"
>>> recorded_measurement("CO[C@H]1C[C@@H]2CC[C@@H](C)[C@@](O)(O2)C(=O)C(=O)N2CCCC[C@H]2C(=O)O[C@H]([C@H](C)C[C@@H]2CC[C@@H](OCCO)[C@H](OC)C2)CC(=O)[C@H](C)/C=C(\\C)[C@@H](O)[C@@H](OC)C(=O)[C@H](C)C[C@H](C)/C=C/C=C/C=C/1C")
"> 30 µM (inactive)"
>>> recorded_measurement("Cc1cc(Nc2cc(N3CCN(C)CC3)nc(/C=C/c3ccccc3)n2)n[nH]1")
"> 30 µM (inactive)"
>>> recorded_measurement("Cc1cn(-c2cc(NC(=O)c3ccc(C)c(Nc4nccc(-c5cccnc5)n4)c3)cc(C(F)(F)F)c2)cn1")
"1.27 µM (active)"
>>> recorded_measurement("COc1cc2nccc(Oc3ccc(NC(=O)NC4CC4)c(Cl)c3)c2cc1C(N)=O")
"0.316 µM (active)"
>>> recorded_measurement("C[C@@H](Nc1cc(F)cc(F)c1)c1cc(C(=O)N(C)C)cc2c(=O)cc(N3CCOCC3)oc12")
"> 30 µM (inactive)"
>>> recorded_measurement("Cc1ccc(S(=O)(=O)Nc2nc3ccccc3nc2Nc2ccc3nsnc3c2)cc1")
"> 30 µM (inactive)"
>>> recorded_measurement("CN1N=C(N)c2cn([C@@H]3O[C@H](COP(=O)(O)O)[C@@H](O)[C@H]3O)c3ncnc1c23 [TRICIRIBINE PHOSPHATE]")
"> 30 µM (inactive)"
>>> recorded_measurement("Cn1cc(-c2ccc(F)c(C(F)(F)F)c2)nc1C1CCN(c2ncnc3[nH]ncc23)CC1")
"> 30 µM (inactive)"
>>> recorded_measurement("COC(=O)N[C@@H](C)CNc1nccc(-c2cn(C(C)C)nc2-c2cc(Cl)cc(NS(C)(=O)=O)c2F)n1")
"0.967 µM (active)"
>>> recorded_measurement("CNS(=O)(=O)Nc1nccc(Cc2c(C)c3ccc(Oc4ncccn4)cc3oc2=O)c1F")
"> 30 µM (inactive)"
>>> recorded_measurement("Cc1cc(-c2cc(O)ccc2Cl)cc2nnc(Nc3ccc(OCCN4CCCC4)cc3)nc12")
"0.003 µM (active)"
>>> recorded_measurement("COc1cc(CCc2cc(NC(=O)c3ccc(N4C[C@@H](C)N[C@@H](C)C4)cc3)n[nH]2)cc(OC)c1")
"> 30 µM (inactive)"
>>> recorded_measurement("CN(C)C(=O)c1cc2cnc(Nc3ccc(N4CCNCC4)cn3)nc2n1C1CCCC1")
"> 30 µM (inactive)"
>>> recorded_measurement("CN1CC[C@@H](c2c(O)cc(O)c3c(=O)cc(-c4ccccc4Cl)oc23)[C@@H]1CO")
"> 30 µM (inactive)"
>>> recorded_measurement("Nc1nc(N)c2nc(-c3cccc(O)c3)c(-c3cccc(O)c3)nc2n1")
"3.67 µM"
>>> recorded_measurement("Cc1ccc(NC(=O)c2ccc(CN3CC[C@H](N(C)C)C3)c(C(F)(F)F)c2)cc1Nc1nccc(-c2cncnc2)n1")
"0.506 µM (active)"
>>> recorded_measurement("CNC(=O)c1ccc(-c2cnc3ncc(Cc4ccc5ncccc5c4)n3n2)cc1F")
"> 30 µM (inactive)"
>>> recorded_measurement("O=C(O)[C@]1(Cc2cccc(Nc3nccs3)n2)CC[C@@H](Oc2cccc(Cl)c2F)CC1")
"> 30 µM (inactive)"
>>> recorded_measurement("COc1cc(N2CCC(N3CCN(C)CC3)CC2)ccc1Nc1ncnc(Nc2ccccc2S(=O)(=O)C(C)C)n1")
"> 30 µM (inactive)"
>>> recorded_measurement("COc1cc2nccc(Oc3ccc(NC(=O)Nc4cc(C)on4)c(Cl)c3)c2cc1OC")
"1.35 µM (active)"
>>> recorded_measurement("CCCS(=O)(=O)Nc1ccc(F)c(C(=O)c2c[nH]c3ncc(-c4ccc(Cl)cc4)cc23)c1F")
"2.08 µM (active)"
>>> recorded_measurement("O=C(Nc1ccc(-c2ccnc(Nc3ccc(N4CCOCC4)cc3)n2)cc1)C1CCCN1 (stereo unspecified)")
"> 30 µM (inactive)"
>>> recorded_measurement("C[C@@H]1CN(Cc2ccc(F)cc2)[C@@H](C)CN1C(=O)c1cc2c(C(=O)C(=O)N(C)C)cn(C)c2cc1Cl")
"> 30 µM (inactive)"
>>> recorded_measurement("CNC(=O)c1ccc(C)c(-n2c(C)cc(OCc3ccc(F)cc3F)c(Br)c2=O)c1")
"> 30 µM (inactive)"
>>> recorded_measurement("O=c1sn(-c2cccc3ccccc23)c(=O)n1Cc1ccccc1")
"> 30 µM (inactive)"
>>> recorded_measurement("O=C(Nc1cccc(Cl)c1)Nc1ncc(CCNc2ncnc3ccsc23)s1")
"> 30 µM (inactive)"
>>> recorded_measurement("COCCNCc1ccc(-c2cc3nccc(Oc4ccc(NC(=S)NC(=O)Cc5ccc(F)cc5)cc4F)c3s2)nc1")
"> 30 µM (inactive)"
>>> recorded_measurement("Cc1ccc(-n2nc(C(C)(C)C)cc2NC(=O)NCc2cc(F)ccc2Oc2ccc3c(cnn3CCO)c2)cc1")
"0.662 µM (active)"

* * *

Assay read-out Kd; system under study: Glycine--tRNA ligase (Homo sapiens). Also: in the data inactive means no Kd found up to 30 µM.
Sequence (P41250 whole entry): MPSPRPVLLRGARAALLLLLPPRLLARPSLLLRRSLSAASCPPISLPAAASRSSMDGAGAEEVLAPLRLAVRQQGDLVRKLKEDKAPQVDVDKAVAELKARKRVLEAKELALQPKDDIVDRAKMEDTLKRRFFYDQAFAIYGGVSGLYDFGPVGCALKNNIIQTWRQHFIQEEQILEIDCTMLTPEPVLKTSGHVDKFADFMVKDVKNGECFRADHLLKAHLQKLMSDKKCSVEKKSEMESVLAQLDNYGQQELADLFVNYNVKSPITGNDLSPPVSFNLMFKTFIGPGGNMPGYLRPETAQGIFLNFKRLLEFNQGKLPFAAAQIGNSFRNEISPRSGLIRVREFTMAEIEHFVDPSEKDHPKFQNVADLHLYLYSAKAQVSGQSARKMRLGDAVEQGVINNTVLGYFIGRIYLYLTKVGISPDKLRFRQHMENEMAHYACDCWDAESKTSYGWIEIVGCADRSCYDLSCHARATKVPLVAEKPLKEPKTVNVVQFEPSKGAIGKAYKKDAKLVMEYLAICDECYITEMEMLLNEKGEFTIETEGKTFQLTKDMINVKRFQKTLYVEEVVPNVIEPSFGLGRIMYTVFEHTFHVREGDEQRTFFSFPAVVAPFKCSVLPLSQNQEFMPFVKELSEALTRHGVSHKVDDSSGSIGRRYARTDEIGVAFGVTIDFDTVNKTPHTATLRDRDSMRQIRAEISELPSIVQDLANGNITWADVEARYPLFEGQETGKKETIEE
Calls of active or inactive are those of the source.
EXPERIMENTAL_ENDPOINT: Kd

>>> recorded_measurement("CN1CC[C@@H](c2c(O)cc(O)c3c(=O)cc(-c4ccccc4Cl)oc23)[C@@H]1CO")
"> 30 µM (inactive)"
>>> recorded_measurement("CC[C@H](Nc1ncnc2[nH]cnc12)c1nc2cccc(F)c2c(=O)n1-c1ccccc1")
"> 30 µM (inactive)"
>>> recorded_measurement("Cc1cc([C@@H](C)Nc2ccccc2C(=O)O)c2nc(N3CCOCC3)cc(=O)n2c1")
"> 30 µM (inactive)"

* * *

biological target: Casein kinase II subunit alpha' (Homo sapiens, UniProt P19784); also: in the data inactive means no Kd found up to 30 µM
Sequence (P19784 whole entry): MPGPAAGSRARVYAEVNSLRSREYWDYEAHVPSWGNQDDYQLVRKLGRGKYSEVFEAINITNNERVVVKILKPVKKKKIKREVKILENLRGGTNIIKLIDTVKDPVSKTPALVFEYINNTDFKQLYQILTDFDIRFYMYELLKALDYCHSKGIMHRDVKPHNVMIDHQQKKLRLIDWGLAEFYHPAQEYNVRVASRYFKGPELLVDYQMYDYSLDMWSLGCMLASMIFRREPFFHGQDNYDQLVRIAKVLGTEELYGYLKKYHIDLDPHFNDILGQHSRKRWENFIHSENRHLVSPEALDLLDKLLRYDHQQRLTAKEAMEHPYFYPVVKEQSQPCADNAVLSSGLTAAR
Activity calls are given as the source filed them.
Possible outcomes: yes = active, no = inactive

>>> cat("CN1CCC(COc2cnc(-c3cccc(Cn4nc(-c5cccc(C#N)c5)ccc4=O)c3)nc2)CC1 [TEPOTINIB]")
"no"
>>> cat("O=c1sn(-c2cccc3ccccc23)c(=O)n1Cc1ccccc1 [TIDEGLUSIB]")
"no"
>>> cat("COc1cc(CCc2cc(NC(=O)c3ccc(N4C[C@@H](C)N[C@@H](C)C4)cc3)n[nH]2)cc(OC)c1 [AZD-4547]")
"no"
>>> cat("COc1ccc(-c2ccc3c(N4CCOC[C@@H]4C)nc(N4CCOC[C@@H]4C)nc3n2)cc1CO [AZD-8055]")
"no"
>>> cat("Nc1nc(N)c2nc(-c3cccc(O)c3)c(-c3cccc(O)c3)nc2n1 [TG100-115]")
"no"
>>> cat("Cc1cc(Nc2cc(N3CCN(C)CC3)nc(/C=C/c3ccccc3)n2)n[nH]1 [ENMD-2076]")
"yes"
>>> cat("Cc1ccc(-n2nc(C(C)(C)C)cc2NC(=O)NCc2cc(F)ccc2Oc2ccc3c(cnn3CCO)c2)cc1 [PEXMETINIB]")
"no"
>>> cat("O=C1NC(=O)/C(=C/c2ccc3nccc(-c4ccncc4)c3c2)S1 [GSK-1059615]")
"yes"
>>> cat("CCn1c(=O)c(-c2cc[nH]n2)cc2c(C)nc(N)nc21 [VOXTALISIB]")
"no"
>>> cat("COc1cc2nccc(Oc3ccc(NC(=O)NC4CC4)c(Cl)c3)c2cc1C(N)=O [LENVATINIB]")
"no"
>>> cat("Cc1ccc(S(=O)(=O)Nc2nc3ccccc3nc2Nc2ccc3nsnc3c2)cc1")
"no"
>>> cat("Cc1nc(N)sc1-c1ccnc(Nc2ccc(N3CCOCC3)cc2)n1 [CYC-116]")
"yes"
>>> cat("COC(=O)N[C@@H](C)CNc1nccc(-c2cn(C(C)C)nc2-c2cc(Cl)cc(NS(C)(=O)=O)c2F)n1 [ENCORAFENIB]")
"no"
>>> cat("Cc1cc([C@@H](C)Nc2ccccc2C(=O)O)c2nc(N3CCOCC3)cc(=O)n2c1 [AZD-6482]")
"no"
>>> cat("CNS(=O)(=O)Nc1nccc(Cc2c(C)c3ccc(Oc4ncccn4)cc3oc2=O)c1F [AVUTOMETINIB]")
"no"
>>> cat("OCCn1cc(-c2cnc3nnn(Cc4ccc5ncccc5c4)c3n2)cn1 [PF-04217903]")
"no"
>>> cat("CO[C@H]1C[C@@H]2CC[C@@H](C)[C@@](O)(O2)C(=O)C(=O)N2CCCC[C@H]2C(=O)O[C@H]([C@H](C)C[C@@H]2CC[C@@H](OCCO)[C@H](OC)C2)CC(=O)[C@H](C)/C=C(\\C)[C@@H](O)[C@@H](OC)C(=O)[C@H](C)C[C@H](C)/C=C/C=C/C=C/1C [EVEROLIMUS]")
"no"
>>> cat("CC(C)Nc1cc(-c2c[nH]c(C(=O)N[C@H](CO)c3cccc(Cl)c3)c2)c(Cl)cn1 [ULIXERTINIB]")
"no"
>>> cat("C[C@@H]1CN(Cc2ccc(F)cc2)[C@@H](C)CN1C(=O)c1cc2c(C(=O)C(=O)N(C)C)cn(C)c2cc1Cl [TALMAPIMOD]")
"no"
>>> cat("C[C@@H](Nc1cc(F)cc(F)c1)c1cc(C(=O)N(C)C)cc2c(=O)cc(N3CCOCC3)oc12 [AZD-8186]")
"no"
>>> cat("COC(=O)[C@@]1(O)C[C@H]2O[C@]1(C)n1c3ccccc3c3c4c(c5c6ccccc6n2c5c31)C(=O)NC4 [K-252A]")
"no"
